- Test system: MAPKAPK5
- particulars: concentration: 1 μM,replicates: in singlicate; n = 1;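 further: KINOMEscan kinase panel screen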
measurementKind: %Inh (%)
Give the value in % but do not write % after it.

Here's what some known entries look like.
NC(=O)Nc1sc(-c2ccc(F)cc2)cc1C(N)=O: 0
CC(C(=O)NC1CCN(c2ccnc(Nc3ccc(F)cc3)n2)C1)c1ccc(Cl)cc1 (centres unmarked): 18
O=C(Nc1cccc(Oc2ccc3nccn3n2)c1)Nc1cccc(C(F)(F)F)c1: 0
Cl.c1ccc(Oc2ccc(Nc3ccnc4cc(-c5ccc(CN6CCNCC6)o5)ccc34)cc2)nc1: 0
COc1ccc(Nc2nccc(N3CCC(NC(=O)c4cccc(C#N)c4)C3)n2)cc1 (centres unmarked): 0

Bench note: what %Inh did `OCCn1cc(-c2cnc3nnn(Cc4ccc5ncccc5c4)c3n2)cn1` show?
0

Bench note: what %Inh did `CCn1c(-c2nonc2N)nc2cncc(CNC3CCNCC3)c21.Cl` show?
0

Bench note: what %Inh did `Cn1cc(-c2cccc3c(N)c(C(N)=O)nnc23)cn1` show?
0

Bench note: what %Inh did `CC(C)c1nc(-c2cccc(NS(=O)(=O)c3ccccc3)c2)c(-c2ccnc(Nc3ccc4c(c3)CN(C)CC4)n2)s1` show?
0

Bench note: what %Inh did `O=C(Nc1n[nH]c2cc(-c3ccco3)ccc12)C1CC1` show?
12

Bench note: what %Inh did `CN1CCN(CCCNc2nccc(-c3c(-c4ccc(F)cc4)nn4cc(C(N)=O)ccc34)n2)CC1` show?
0

---

- System: JNK1
- Construct: gene MAPK8
- particulars: concentration: 1 μM,replicates: in singlicate; n = 1
Lab note: compare %Inh against 10%. Equal or greater, write criterion met. Smaller, write criterion not met.

Some solved cases for reference:
C[C@@H]1CNc2c(sc3ccc4nc(-c5ccncc5)ccc4c23)C(=O)N1: criterion not met
NC(=O)Nc1sc(-c2ccc(F)cc2)cc1C(N)=O: criterion met
COc1ccc(Nc2nccc(N3CCC(NC(=O)c4cccc(C#N)c4)C3)n2)cc1 (stereo not drawn): criterion met
FC(F)(F)c1cc(Br)cc(Nc2nccc(-c3cnn4ncccc34)n2)c1: criterion not met
CCOC(=O)N1CCC(n2cnc(-c3ccc(F)cc3)c2-c2ccnc(N)n2)CC1: criterion met
CCn1c(-c2nonc2N)nc2cncc(Br)c21: criterion not met

Note: attention shifts to another entry.
# bool: %Inh of `CN1CCN(CCNc2nc3cc(Oc4ccc(NC(=O)Nc5cc(C(F)(F)F)ccc5F)cc4)ccc3[nH]2)CC1.Cl.Cl` >= 10%
criterion not met

---

- System: EPHB6
- particulars: concentration: 1 μM,replicates: in singlicate; n = 1
measurementKind: %Inh (%)
Give the value in % but do not write % after it.

Here's what some known entries look like.
CC(C)S(=O)(=O)N1CCN(Cc2ccc3c(c2)nc(NC(=O)c2ccsc2)n3C[C@H](O)c2ccccc2)CC1: 0
CS(=O)c1ccc(-c2coc3ccc(-c4n[nH]c(=O)o4)cc23)cc1 (centres unmarked): 25
CS(=O)(=O)Nc1ccc(-c2ccnc3[nH]ccc23)cc1: 5
CN1CCN(CCNc2nc3cc(Oc4ccc(NC(=O)Nc5cc(C(F)(F)F)ccc5F)cc4)ccc3[nH]2)CC1.Cl.Cl: 25
COc1cc2nccc(Nc3ccc(Oc4ccccc4)cc3)c2cc1OC.Cl: 90.9

Bench note: what %Inh did `CC(C)c1nc(-c2cccc(NS(=O)(=O)c3ccccc3)c2)c(-c2ccnc(Nc3ccc4c(c3)CN(C)CC4)n2)s1` show?
98.5

Bench note: what %Inh did `OCCn1cc(-c2cnc3nnn(Cc4ccc5ncccc5c4)c3n2)cn1` show?
17

Bench note: what %Inh did COc1cc(Nc2nccc(N3CCC(NC(=O)c4cccc(C#N)c4)C3)n2)cc(OC)c1OC (centres unmarked) show?
86

---

- Test system: RET
- particulars: concentration: 1 μM,replicates: in singlicate; n = 1
Binary label based on %Inh with cut-off 30%: below gives Satisfied, not below gives Not satisfied.

Some solved cases for reference:
CS(=O)(=O)Nc1ccc(-c2ccnc3[nH]ccc23)cc1: Satisfied
Cc1ccc2c(-c3ccnc(Nc4ccc(C(F)(F)F)cc4)n3)cnn2n1: Satisfied
Cl.Nc1n[nH]c2cc(-c3ccccn3)ccc12: Satisfied

In plain terms, does N#Cc1cccc(C(=O)NC2CCN(c3ccnc(Nc4ccc(F)cc4)n3)C2)c1 (stereo not drawn) come in under 30% for %Inh?
Satisfied

In plain terms, does `O=C1NCCc2[nH]c(-c3ccncc3)cc21` come in under 30% for %Inh?
Satisfied

In plain terms, does `CC(C)S(=O)(=O)N1CCN(Cc2ccc3c(c2)nc(NC(=O)c2ccsc2)n3C[C@H](O)c2ccccc2)CC1` come in under 30% for %Inh?
Not satisfied

In plain terms, does `CC(=O)Nc1nc2cnc(Nc3cc(NC(=O)c4cccc(CC(C)(C)C#N)c4)ccc3C)nc2s1` come in under 30% for %Inh?
Not satisfied

In plain terms, does `COc1cc2c(Nc3ccc(NC(=O)c4ccccc4)cc3)ncnc2cc1OCCCN1CCOCC1` come in under 30% for %Inh?
Not satisfied

In plain terms, does `O=c1[nH]cc(-c2ccc(O)cc2)c2sc(-c3ccncc3)cc12` come in under 30% for %Inh?
Satisfied

---

- Test system: DAPK1
- particulars: concentration: 1 μM,replicates: in singlicate; n = 1
measurementKind: %Inh (%)
Give the value in % but do not write % after it.

Here's what some known entries look like.
O=C(Nc1cccc(C(F)(F)F)c1)c1cccc(Oc2ccc3nccn3n2)c1: 0
CC(C)S(=O)(=O)N1CCN(Cc2ccc3c(c2)nc(NC(=O)c2ccsc2)n3C[C@H](O)c2ccccc2)CC1: 0
COc1cc(Nc2nccc(N3CCC(NC(=O)c4cccc(C#N)c4)C3)n2)cc(OC)c1OC (centres unmarked): 0

Bench note: what %Inh did `O=C(Nc1cccc(Oc2ccc3nccn3n2)c1)Nc1cccc(C(F)(F)F)c1` show?
14

Bench note: what %Inh did `COC(=O)Nc1nc2cc(Oc3ccc(NC(=O)Nc4cc(C(F)(F)F)ccc4Cl)cc3)ccc2[nH]1.Cl` show?
2

Bench note: what %Inh did CC(C(=O)NC1CCN(c2ccnc(Nc3ccc(F)cc3)n2)C1)c1ccc(Cl)cc1 (centres unmarked) show?
0

Bench note: what %Inh did `O=C(Nc1ccccc1)c1cccc(Oc2ccc3nccn3n2)c1` show?
100

Bench note: what %Inh did `Cc1ccc(Nc2ccnc(Nc3ccc4c(c3)CS(=O)(=O)C4)n2)cc1O.Cl` show?
63

---

- Tested on: PFTK1
- Construct: gene CDK14
- particulars: concentration: 1 μM,replicates: in singlicate; n = 1
Recorded %Inh by entry
Give the value in % but do not write % after it.

Here's what some known entries look like.
CCNCC(Cc1ccccc1)NC(=O)c1cc(Br)c(-c2ccnc3[nH]ccc23)s1.Cl.Cl (centres unmarked) [GSK1383280]: 21
COc1cccc(OC)c1C(=O)Nc1cccc(-c2nn3ccccc3c2-c2ccnc(Nc3cccc(F)c3)n2)c1 [GSK361065]: 3
FC(F)(F)c1cc(Br)cc(Nc2nccc(-c3cnn4ncccc34)n2)c1 [GW810578]: 14
CN(c1cccc(CNc2nc(Nc3ccc4c(c3)CC(=O)N4)ncc2C(F)(F)F)c1)S(C)(=O)=O: 17
COc1cccc(C2=C(Nc3cccc(Cl)c3)C(=O)NC2=O)c1 [SB-341556]: 0

For PFTK1, provide %Inh of CCn1c(-c2nonc2N)nc2cncc(CNC3CCNCC3)c21.Cl [SB-747651] please.
1

For PFTK1, provide %Inh of `NC(=O)c1ccc(-c2cc3ncnc(SCC(=O)O)c3s2)cc1` please.
7

For PFTK1, provide %Inh of `CN(c1ccccc1CNc1nc(Nc2ccc3c(c2)CC(=O)N3)ncc1C(F)(F)F)S(C)(=O)=O` please.
8

---

Recorded %Inh by entry
- Tested on: VPS34
- Construct: gene PIK3C3
- particulars: concentration: 1 μM,replicates: in singlicate; n = 1

Here's what some known entries look like.
CN(c1ccc2c(c1)nc(NCc1ccc(F)cc1)n2C)c1ccnc(Nc2ccc(CS(C)(=O)=O)cc2)n1.Cl: 30%
Cc1ccn2nc(-c3ccc(F)cc3)c(-c3ccncc3)c2c1.Cl: 51%
CN1CCN(CCNc2nc3cc(Oc4ccc(NC(=O)Nc5cc(C(F)(F)F)ccc5F)cc4)ccc3[nH]2)CC1.Cl.Cl: 17%

Alright, here's another compound for you.
For VPS34, provide %Inh of `OCCn1cc(-c2cnc3nnn(Cc4ccc5ncccc5c4)c3n2)cn1` please.
17%

---

- Tested on: SRC
- particulars: concentration: 1 μM,replicates: in singlicate; n = 1
Recorded %Inh by entry
Give the value in % but do not write % after it.

Cn1ccc2ncnc(Oc3ccc(NC(=O)Nc4cc(C(C)(C)C)on4)c(Cl)c3)c21: 44

Bench note: what %Inh did COc1cc(Nc2nccc(N3CCC(NC(=O)c4cccc(C#N)c4)C3)n2)cc(OC)c1OC (stereo not drawn) [GSK1379751] show?
22

Bench note: what %Inh did C[C@@H](Oc1cc(-n2cnc3cc(-c4ccncc4)ccc32)sc1C(N)=O)c1ccccc1Cl [GSK479719] show?
26

Bench note: what %Inh did `O=C1NCCc2[nH]c(-c3ccncc3)cc21` show?
6

Bench note: what %Inh did Cl.Nc1n[nH]c2cc(-c3ccccn3)ccc12 [GSK2189892] show?
0

Bench note: what %Inh did CN(c1ccc2c(c1)nc(NCc1ccc(F)cc1)n2C)c1ccnc(Nc2ccc(CS(C)(=O)=O)cc2)n1.Cl [GW813244] show?
64

Bench note: what %Inh did `Cn1ccc2ncnc(Oc3ccc(NC(=O)Nc4cncc(C(F)(F)F)c4)c(Cl)c3)c21` show?
5

Bench note: what %Inh did COc1cc2nccc(Nc3ccc(Oc4ccccc4)cc3)c2cc1OC.Cl [GI261656] show?
47

Bench note: what %Inh did c1ccc(Oc2ccc(Nc3ccnc4ccc(-c5ccccn5)cc34)cc2)cc1 [GW407034] show?
17

Bench note: what %Inh did COc1cccc(CNC(=O)NC2CCN(c3ccnc(Nc4cc(OC)c(OC)c(OC)c4)n3)C2)c1 (stereo not drawn) [GSK1379765] show?
24
